Recorded values, source patent US20240109962A1.

Parameter Span: see the listing below.
target: T1, human LILRB2 expressed on cells (293T-LILRB2, CHO-K1-LILRB2) (human, UniProt Q8N423 22-597); test: flow cytometry, blockade of His-tagged HLA-G tetramer binding to 293T-LILRB2 cells; fit table under the graph
T1 construct: whole, on cells; the cell line is named under assay; also called HEK293T-LILRB2
T1 sequence (Q8N423 22-597): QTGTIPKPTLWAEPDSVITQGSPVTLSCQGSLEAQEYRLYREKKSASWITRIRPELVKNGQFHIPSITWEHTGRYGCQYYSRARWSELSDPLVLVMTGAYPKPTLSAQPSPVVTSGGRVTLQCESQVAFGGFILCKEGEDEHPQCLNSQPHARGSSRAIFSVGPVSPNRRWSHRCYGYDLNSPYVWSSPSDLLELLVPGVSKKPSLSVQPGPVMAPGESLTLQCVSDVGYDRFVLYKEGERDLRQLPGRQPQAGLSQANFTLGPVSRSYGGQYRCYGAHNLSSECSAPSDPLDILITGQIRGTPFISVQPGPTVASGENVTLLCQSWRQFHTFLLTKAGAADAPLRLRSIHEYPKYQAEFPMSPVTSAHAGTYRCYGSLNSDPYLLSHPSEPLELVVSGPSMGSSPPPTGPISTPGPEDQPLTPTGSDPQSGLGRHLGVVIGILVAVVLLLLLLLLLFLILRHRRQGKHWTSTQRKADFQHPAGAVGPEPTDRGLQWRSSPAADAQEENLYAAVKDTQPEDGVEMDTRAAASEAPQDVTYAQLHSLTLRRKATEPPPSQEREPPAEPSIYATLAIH
Your answer is read as RFU, so omit the unit and give the number.

Binder	Units	Value reported
Antibody h#2E1 (antibody, V domains shown, Humanized variant of 11B12; detected with anti-human IgG) VH: EVQLVESGGGLVQPGGSLRLSCAVSGYSITSGYYWNWIRQAPGKGLEWVAYISYDGNNNYNPSLKNRFTISRDTSKNTFYLQMNSLRAEDTAVYYCAREESTMITTAWFAYWGQGTLVTVSS VL: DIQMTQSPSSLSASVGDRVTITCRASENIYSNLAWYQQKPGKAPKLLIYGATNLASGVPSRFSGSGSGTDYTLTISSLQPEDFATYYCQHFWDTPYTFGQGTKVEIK	RFU	8000

Here is the next item to consider.
Lookup result for Antibody 2E1_FF4 (antibody, V domains shown) VH: EVQLVESGGGLVQPGGSLRLSCAVSGYSITSGYYWNWIRQAPGKGLEWVAYISYDGNNWYNPSLKNRFTISRDTSKNTFYLQMNSLRAEDTAVYYCAREESTMITTAWFAYWGQGTLVTVSS VL: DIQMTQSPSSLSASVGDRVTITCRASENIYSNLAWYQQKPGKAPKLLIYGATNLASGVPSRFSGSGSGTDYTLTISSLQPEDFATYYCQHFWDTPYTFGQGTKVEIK ; measured Span: 6670
